Listed below: pIC50 values for each entry.
- tgt: human CD73 (Homo sapiens, UniProt P21589)
- Construct: purchased R&D Systems 5795-EN-010
- Sequence (P21589 27-549): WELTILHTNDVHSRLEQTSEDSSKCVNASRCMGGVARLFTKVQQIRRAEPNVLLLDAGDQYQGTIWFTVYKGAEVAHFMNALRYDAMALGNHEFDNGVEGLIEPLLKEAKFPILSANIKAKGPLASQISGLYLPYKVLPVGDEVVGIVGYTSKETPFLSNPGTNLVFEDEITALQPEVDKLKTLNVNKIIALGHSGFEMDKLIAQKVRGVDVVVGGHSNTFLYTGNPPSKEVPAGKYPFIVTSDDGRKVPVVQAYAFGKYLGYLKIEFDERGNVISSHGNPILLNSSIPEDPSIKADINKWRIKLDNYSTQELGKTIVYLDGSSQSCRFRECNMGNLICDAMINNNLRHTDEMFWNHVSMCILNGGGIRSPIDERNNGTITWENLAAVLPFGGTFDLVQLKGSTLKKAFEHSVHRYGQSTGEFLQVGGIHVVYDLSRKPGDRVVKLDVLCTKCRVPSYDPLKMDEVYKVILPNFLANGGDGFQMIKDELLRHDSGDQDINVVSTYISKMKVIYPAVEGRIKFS
- assay overview: Inhibition of 5′-Nucleotidase Activity of CD73 (Assay 1)
- Format: biochemical
- conditions: human CD73 4 ng/ml, 50 μM CMP, 20 min at RT, malachite green readout; read-out: Assay 1: IC50, inhibition of 5′-nucleotidase activity of CD73
pIC50: −log10 of the molar value.

Please review the following examples before continuing.
molecule	result
CCOC(=O)[C@H](OC[C@H]1O[C@@H](n2cnc3c(N)nc(C(F)(F)F)nc32)[C@H](O)[C@@H]1O)P(=O)(O)O (single isomer, unassigned)	> 7.00
CNc1nc(Cl)nc2c1ncn2[C@@H]1O[C@H](COC(C(F)(F)F)P(=O)(O)O)[C@@H](O)[C@H]1O (single isomer, unassigned) [Example 100]	6.00 to 7.00
CCNC(=O)[C@@H](OC[C@H]1O[C@@H](n2cnc3c(NCC)nc(Cl)nc32)[C@H](O)[C@@H]1O)P(=O)(O)O (single isomer, unassigned) [Example 34a]	> 7.00
CCOC(=O)[C@@H](OC[C@H]1O[C@@H](n2cnc3c(N)nc(Cl)nc32)[C@H](O)[C@@H]1O)P(=O)(O)O (single isomer, unassigned) [1, isomer 2]	6.00 to 7.00
O=C(Nc1nc(I)nc2c1ncn2[C@@H]1O[C@H](COC(C(=O)O)P(=O)(O)O)[C@@H](O)[C@H]1O)c1ccccc1 (stereo partly drawn)	> 7.00

Task item: Specify pIC50 for CC(C)COC(=O)[C@H](OC[C@H]1O[C@@H](n2cnc3c(N)nc(Cl)nc32)[C@H](O)[C@@H]1O)P(=O)(O)O (single isomer, unassigned) and stop.
Reply: > 7.00

Task item: Specify pIC50 for CCNC(=O)[C@H](OC[C@H]1O[C@@H](n2cnc3c(N)nc(Cl)nc32)[C@H](O)[C@@H]1O)P(=O)(O)O (single isomer, unassigned) and stop.
Reply: > 7.00

Task item: Specify pIC50 for CCNC(=O)[C@@H](OC[C@H]1O[C@@H](n2cnc3c(N)nc(Cl)nc32)[C@H](O)[C@@H]1O)P(=O)(O)O (single isomer, unassigned) [Example 18a] and stop.
Reply: 6.00 to 7.00

Task item: Specify pIC50 for Nc1ncnc2c1ncn2[C@@H]1O[C@H](CO[C@@H](CO)P(=O)(O)O)[C@@H](O)[C@H]1O (single isomer, unassigned) and stop.
Reply: < 6.00

Task item: Specify pIC50 for CCOC(=O)[C@@H](OC[C@H]1O[C@@H](n2cnc3c(N)nc(-c4ncco4)nc32)[C@H](O)[C@@H]1O)P(=O)(O)O (single isomer, unassigned) [Example 49a] and stop.
Reply: 6.00 to 7.00

Task item: Specify pIC50 for Nc1nc(Cl)nc2c1ncn2[C@@H]1O[C@H](COC(Cc2nccs2)(C(=O)O)C(=O)O)[C@@H](O)[C@H]1O and stop.
Reply: > 7.00
